The listing below reports Kd for molecules tested on UniProt:P38646.
Sequence (P38646 47-679): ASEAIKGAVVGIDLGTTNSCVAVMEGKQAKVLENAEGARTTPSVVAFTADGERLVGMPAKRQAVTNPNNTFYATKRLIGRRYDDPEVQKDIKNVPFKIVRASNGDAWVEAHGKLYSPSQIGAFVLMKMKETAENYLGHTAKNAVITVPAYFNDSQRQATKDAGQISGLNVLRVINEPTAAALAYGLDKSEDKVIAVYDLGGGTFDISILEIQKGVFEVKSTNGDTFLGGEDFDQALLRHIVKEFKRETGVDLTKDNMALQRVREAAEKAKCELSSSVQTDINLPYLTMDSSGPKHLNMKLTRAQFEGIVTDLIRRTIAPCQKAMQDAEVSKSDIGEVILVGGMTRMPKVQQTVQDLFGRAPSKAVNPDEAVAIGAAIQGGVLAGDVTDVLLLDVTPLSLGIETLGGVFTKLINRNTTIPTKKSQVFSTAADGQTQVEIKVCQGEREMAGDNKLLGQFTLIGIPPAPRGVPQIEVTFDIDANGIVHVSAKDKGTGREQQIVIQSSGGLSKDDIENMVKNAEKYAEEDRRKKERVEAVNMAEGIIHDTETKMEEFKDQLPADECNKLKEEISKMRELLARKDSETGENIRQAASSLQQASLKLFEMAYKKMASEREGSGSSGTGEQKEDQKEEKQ
Express the result in µM but write the number alone.

Nc1ncnc2c1ncn2[C@@H]1O[C@H](COP(=O)(O)OP(=O)(O)O)[C@@H](O)[C@H]1O; 2.2

Query molecule follows.
Req: Item: Nc1ncnc2c1ncn2[C@@H]1O[C@H](COP(=O)(O)OP(=O)(O)OP(=O)(O)O)[C@@H](O)[C@H]1O Test system: UniProt:P38646 Read-out: Kd Value: ?
Resp: 1.1
